Measured values drawn from ChEMBL document CHEMBL1143720 for this set.

Test system: HeLa
Assay: Cytotoxicity against human HeLa cells by MTT method
Format: cell-based
Measurement Label: pIC50
Scale: pIC50 equals -log10([C]), with [C] in mol/L.

Provide the documented pIC50 with HeLa as the system for CC1(C)[C@H]2CC[C@@]34CC5[C@H](C[C@H]3[C@]2(C)CC[C@@H]1O)[C@]5(C)C4
4.60

Provide the documented pIC50 with HeLa as the system for C=C[C@@]1(C)CC[C@H]2C(=CC[C@H]3C(C)(C)[C@@H](O)CC[C@]23C)C1
4.06

Provide the documented pIC50 with HeLa as the system for CC[C@@]1(O)C(=O)OCc2c1cc1n(c2=O)Cc2cc3ccccc3nc2-1
6.30

Provide the documented pIC50 with HeLa as the system for C/C(=C\CO)CCC[C@H](C)CCC[C@H](C)CCCC(C)C [TRANS-PHYTOL]
4.33

Provide the documented pIC50 with HeLa as the system for CC1(C)C(=O)CC[C@@]2(C)[C@@H]3C[C@@H]4[C@@H]5C[C@@]3(CC[C@@H]12)C[C@@]45C
4.47

Provide the documented pIC50 with HeLa as the system for C[C@@]12CC[C@H](O)[C@](C)(CO)[C@H]1CC[C@@]13CC4[C@H](C[C@H]12)[C@]4(C)C3
4.19

Provide the documented pIC50 with HeLa as the system for CC1(C)CCC[C@]2(C)[C@H]3C[C@@H]4C5C(=O)[C@]3(CC[C@@H]12)[C@H](I)[C@]54C
3.82

Provide the documented pIC50 with HeLa as the system for CC1(C)CCC[C@]2(C)[C@H]3CC[C@]4(C)CC(=O)[C@]3(CC[C@@H]12)[C@H]4O
3.82

* * *

Test system: HeLa
Experiment: Cytotoxicity against human HeLa cells by MTT method
Format: cell-based
pIC50: −log10 of the molar value.
For each record, write down the corresponding pIC50.

Which pIC50 value is on record for C[C@@]12CCC(=O)[C@](C)(CBr)[C@H]1CC[C@@]13C(=O)C4[C@H](C[C@H]12)[C@]4(C)C3=O ?
< 3.82

Which pIC50 value is on record for C=C1CCC[C@]2(C)[C@@H]1CC[C@@]13C(=O)C4[C@H](C[C@H]12)[C@]4(C)C3=O ?
3.89

Which pIC50 value is on record for C[C@@]12CCC(=O)[C@](C)(CO)[C@H]1CC[C@@]13CC4[C@H](C[C@H]12)[C@]4(C)C3 ?
4.39

Which pIC50 value is on record for CC1(C)CCC[C@]2(C)[C@@H]1CC[C@@]13[C@H](O)C[C@](C)(CC[C@@H]21)[C@H]3O ?
< 3.82

Which pIC50 value is on record for CC1(C)CCC[C@]2(C)[C@@H]1CC[C@@]13[C@H](O)C4[C@H](C[C@@H]21)[C@]4(C)[C@H]3O ?
< 3.82

Which pIC50 value is on record for CC1(C)CCC[C@]2(C)[C@@H]1CC[C@@]13C(=O)C4[C@H](C[C@@H]21)[C@]4(C)[C@H]3O ?
3.86

Which pIC50 value is on record for C=C1[C@H]2CC[C@@]34C(=O)C5[C@H](C[C@H]3[C@]2(C)CC[C@@H]1Cl)[C@]5(C)C4=O ?
< 3.82

Which pIC50 value is on record for CC1(C)CCC[C@]2(C)[C@H]3C[C@@H]4C5C(=O)[C@]3(CC[C@@H]12)[C@@H](O)[C@]54C ?
< 3.82

* * *

System: Aorta
Assay: Vasorelaxant activity against KCl-induced contraction in Wistar rat aorta
Format: functional, tissue-based
For each record, write down the corresponding pIC50.
Scale: pIC50 equals -log10([C]), with [C] in mol/L.

Which pIC50 value is on record for CO[C@]1(C)[C@@H](Br)CC[C@@]2(C)[C@@H]3C[C@H]4C5C(=O)[C@@]3(CC[C@@H]21)C(=O)[C@]54C ?
4.91

Which pIC50 value is on record for C=C1CCC[C@]2(C)[C@@H]1CC[C@@]13C(=O)C4[C@H](C[C@H]12)[C@]4(C)C3=O ?
5.46

Which pIC50 value is on record for C=C[C@@]1(C)CC[C@H]2C(=CC[C@H]3C(C)(C)[C@@H](O)CC[C@]23C)C1 [ISOPIMARANE] ?
4.34

Which pIC50 value is on record for CC1(C)CCC[C@]2(C)[C@@H]1CC[C@@]13C(=O)C4[C@H](C[C@@H]21)[C@]4(C)[C@H]3O ?
5.33

Which pIC50 value is on record for CC1(C)CCC[C@]2(C)[C@H]3C[C@@H]4C5C(=O)[C@]3(CC[C@@H]12)[C@@H](O)[C@]54C ?
5.04

* * *

Tested on: HeLa
Assay: Cytotoxicity against human HeLa cells by MTT method
Type: cell-based
For each record, write down the corresponding IC50.

Provide the documented IC50 with HeLa as the system for C=C1[C@H]2CC[C@@]34C(=O)C5[C@H](C[C@H]3[C@]2(C)CC[C@@H]1O)[C@]5(C)C4=O
> 150 µM

Provide the documented IC50 with HeLa as the system for CC1(C)C(=O)CC[C@]2(C)[C@H]3C[C@@H]4C5C(=O)[C@]3(CC[C@@H]12)[C@@H](O)[C@]54C
> 150 µM

Provide the documented IC50 with HeLa as the system for C=C1C[C@]23CC[C@H]4C(C)(C)C(=O)CC[C@]4(C)[C@H]2C[C@@H]1CC3=O
> 150 µM

Provide the documented IC50 with HeLa as the system for CC1(C)C(=O)CC[C@]2(C)[C@@H]1CC[C@@]13C(=O)C4[C@H](C[C@@H]21)[C@]4(C)[C@H]3O
> 150 µM

Provide the documented IC50 with HeLa as the system for CC1(C)[C@H](O)CC[C@]2(C)[C@@H]1CC[C@@]13C(=O)C4[C@H](C[C@@H]21)[C@]4(C)[C@H]3O
> 150 µM

Provide the documented IC50 with HeLa as the system for CC1=CCC[C@]2(C)[C@@H]1CC[C@@]13C(=O)C4[C@H](C[C@H]12)[C@]4(C)C3=O
125 µM

Provide the documented IC50 with HeLa as the system for CC1(C)CCC[C@]2(C)[C@@H]1CC[C@@]13C(=O)C4[C@H](C[C@H]12)[C@]4(C)C3=O
118 µM

* * *

For each record, write down the corresponding IC50.
Tested on: Aorta
Experiment: Vasorelaxant activity against KCl-induced contraction in Wistar rat aorta
Type: functional, tissue-based

Which IC50 value is on record for C[C@@]12CC[C@H](O)[C@](C)(CO)[C@H]1CC[C@@]13CC4[C@H](C[C@H]12)[C@]4(C)C3 ?
> 80 µM

Which IC50 value is on record for CC1(C)[C@H]2CC[C@@]34CC5[C@H](C[C@H]3[C@]2(C)CC[C@@H]1O)[C@]5(C)C4 ?
> 80 µM

Which IC50 value is on record for CC1(C)C(=O)CC[C@@]2(C)[C@@H]3C[C@@H]4[C@@H]5C[C@@]3(CC[C@@H]12)C[C@@]45C ?
> 80 µM

* * *

System: HeLa
Experiment: Cytotoxicity against human HeLa cells by MTT method
Type: cell-based
pIC50: −log10 of the molar value.
Measurement Label: pIC50

Which pIC50 value is on record for C=C1[C@H]2CC[C@@]34C(=O)C5[C@H](C[C@H]3[C@]2(C)CC[C@@H]1Br)[C@]5(C)C4=O ?
< 3.82

Which pIC50 value is on record for CC1(C)C(=O)CC[C@]2(C)[C@H]3C[C@@H]4C5C(=O)[C@]3(CC[C@@H]12)[C@H](I)[C@]54C ?
< 3.82

Which pIC50 value is on record for C[C@@H]1C(=O)[C@]23CC[C@H]4C(C)(C)C(=O)CC[C@]4(C)[C@H]2C[C@@H]1CC3=O ?
< 3.82

Which pIC50 value is on record for CC(C)(C)[Si](C)(C)O[C@@]12CC[C@@]3(C)[C@@H](CC[C@]45C(=O)C6[C@@H](C[C@@H]43)[C@@]6(C)C5=O)[C@]1(C)C2 ?
< 3.82

Which pIC50 value is on record for CC1(C)C(=O)CC[C@]2(C)[C@@H]1CC[C@@]13C(=O)C4[C@H](C[C@H]12)[C@]4(C)C3=O ?
< 3.82

Which pIC50 value is on record for CC1(C)C(=O)CC[C@@]2(C)[C@H]1CC[C@]13C(=O)C4[C@@H](C[C@@H]12)[C@]4(C)C3=O ?
< 3.82

Which pIC50 value is on record for CO[C@]1(C)[C@@H](Br)CC[C@@]2(C)[C@@H]3C[C@H]4C5C(=O)[C@@]3(CC[C@@H]21)C(=O)[C@]54C ?
< 3.82
